Assay system: human A3G (APOBEC3G) (Homo sapiens)
Assay explanation: fluorescence-based ssDNA cytosine deaminase assay, A3G
Assay type: biochemical
Counter-ions that a name gives are not always drawn.
Parameter: log10 of IC50 (log10 of the value in µM)
Log scale reminder: IC50 in µM, then log10 taken.

Please report the measured log10 of IC50 for CN1CCc2cccc3c2[C@H]1Cc1ccc(O)c(O)c1-3 0.11

For C[C@@](Cc1ccc(O)c(O)c1)(NN)C(=O)O [MN9, S-(−)-Carbidopa] , write its log10 of IC50. 0.72

Report measured log10 of IC50; entry is O=C(O)C1=CC(=C(c2ccc(O)c(C(=O)O)c2)c2ccc(O)c(C(=O)O)c2)C=CC1=O -0.31

Please indicate log10 of IC50 recorded for Oc1cc(O)cc(/C=C/c2ccc(O)c(O)c2)c1 0.26

Identify the reported log10 of IC50 for the following entry. O=c1cc(O)cc(/C=C/c2ccc(O)c(O)c2)o1 0.30

Please supply the value of reported log10 of IC50 for the item O=C(O)Cc1ccc(O)c(O)c1 [MN12, 3,4-Dihydroxyphenylacetic acid] 1.28

Output log10 of IC50 of O=c1c(O)c(-c2cc(O)c(O)c(O)c2)oc2cc(O)cc(O)c12 0.53

Respond only with log10 of IC50 recorded for CN(N=O)c1cc(O)ccc1O -0.37

Answer with reported log10 of IC50 of O=C(O)/C=C/c1ccc(O)c(O)c1 1.93

Supply log10 of IC50 value. Item: CC(=O)OCC1=C(C(=O)O)N2C(=O)[C@@H](NC(=O)CSc3ccncc3)[C@H]2SC1 [MN7, Cephapirin sodium salt] 0.88

Please give the documented log10 of IC50 of Oc1cc2c(cc1O)[C@H]1c3ccccc3CN[C@@H]1CC2 (racemic) [MN8, Dihydrexidine hydrochloride] -0.23

====

Assay system: human A3G (APOBEC3G) (Homo sapiens, UniProt Q9HC16)
Sequence (Q9HC16 whole entry): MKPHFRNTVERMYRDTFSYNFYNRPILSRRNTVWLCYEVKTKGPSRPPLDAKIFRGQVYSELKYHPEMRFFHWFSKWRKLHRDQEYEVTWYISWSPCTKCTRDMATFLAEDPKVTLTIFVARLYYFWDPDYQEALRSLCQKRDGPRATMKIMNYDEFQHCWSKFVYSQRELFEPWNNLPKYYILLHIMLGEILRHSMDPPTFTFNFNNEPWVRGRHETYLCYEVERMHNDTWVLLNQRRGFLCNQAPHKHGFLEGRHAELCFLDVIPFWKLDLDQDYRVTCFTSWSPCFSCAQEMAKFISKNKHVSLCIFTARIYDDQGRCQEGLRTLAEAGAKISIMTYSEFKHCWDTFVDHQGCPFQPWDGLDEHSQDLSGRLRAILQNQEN
Assay explanation: fluorescence-based ssDNA cytosine deaminase assay, A3G
Assay type: biochemical
Parameter: inhibition of A3G catalytic activity (in words)

Give recorded inhibition of A3G catalytic activity (in words). O=C(O)[C@]1(O)C[C@@H](O)[C@@H](O)[C@H](O)C1 [Quinic Acid, reference compound] no effect

Check the records and state inhibition of A3G catalytic activity (in words) for O=C(/C=C/c1ccc(O)c(O)c1)O[C@@H]1C[C@](O)(C(=O)O)C[C@@H](O)[C@H]1O [Chlorogenic acid, reference compound] no effect

State its inhibition of A3G catalytic activity (in words) for this compound: O=C(O)[C@H](O)[C@@H](O)C(=O)O [L-Tartaric Acid, reference compound] no effect

====

Assay system: human A3A (APOBEC3A) (Homo sapiens, UniProt P31941)
Sequence (P31941 whole entry): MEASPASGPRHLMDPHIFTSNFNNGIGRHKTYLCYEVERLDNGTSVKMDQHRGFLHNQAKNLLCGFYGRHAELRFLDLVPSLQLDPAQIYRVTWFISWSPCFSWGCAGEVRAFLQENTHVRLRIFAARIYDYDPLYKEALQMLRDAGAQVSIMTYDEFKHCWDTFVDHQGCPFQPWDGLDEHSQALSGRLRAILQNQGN
Assay explanation: fluorescence-based ssDNA cytosine deaminase assay, A3A
Type: biochemical
Structures can show the parent of a compound that is named as a salt.
Parameter: IC50

Answer with IC50 of Oc1cc2c(cc1O)[C@H]1c3ccccc3CN[C@@H]1CC2 (racemic) [MN8, Dihydrexidine hydrochloride] measured for human A3A (APOBEC3A) (Homo sapiens, UniProt P31941). > 200 µM

With human A3A (APOBEC3A) (Homo sapiens, UniProt P31941) as the test system, provide measured IC50 for this compound: C[C@@](Cc1ccc(O)c(O)c1)(NN)C(=O)O [MN9, S-(−)-Carbidopa] > 200 µM

Print human A3A (APOBEC3A) (Homo sapiens, UniProt P31941) IC50 for CN1CCc2cccc3c2[C@H]1Cc1ccc(O)c(O)c1-3 . > 200 µM
